Just for reference, the NIST ThermoML archive (doi:10.1016/j.jct.2014.06.030) is where these values come from.

SETTINGS: 303.15 K; 101.33 kPa; Liquid; Sing-around technique in a fixed-path interferometer
RECORDED ENDPOINT: speed of sound (m/s)

> print(dat)
                       molecule  recorded.result
1  CN(C)C=O [dimethylformamide]           1440.2
2                   Cc1ccccc1Cl           1280.7
3    C1CCOCC1 [tetrahydropyran]           1246.8
4                      C1CCCCC1           1229.1
5     CNC=O [N-methylformamide]           1417.4

###

SETTINGS: 298.15 K; 101.33 kPa; Liquid; Sing-around technique in a fixed-path interferometer
RECORDED ENDPOINT: speed of sound (m/s)

> print(dat)
                       compound  recorded.result
1                   Cc1ccccc1Cl           1298.7
2    C1CCOCC1 [tetrahydropyran]           1269.8
3                      C1CCCCC1           1253.6
4     CNC=O [N-methylformamide]           1431.6
5  CN(C)C=O [dimethylformamide]           1458.5

###

SETTINGS: 308.15 K; 101.33 kPa; Liquid; Sing-around technique in a fixed-path interferometer
RECORDED ENDPOINT: speed of sound (m/s)

> print(dat)
                       molecule  unit.descriptor  recorded.result
1                   Cc1ccccc1Cl              m/s           1262.7
2    C1CCOCC1 [tetrahydropyran]              m/s           1224.4
3                      C1CCCCC1              m/s           1205.1
4     CNC=O [N-methylformamide]              m/s           1402.2
5  CN(C)C=O [dimethylformamide]              m/s           1420.8

###

SETTINGS: 298.15 K; 101.33 kPa; Liquid; Vibrating tube method
RECORDED ENDPOINT: mass density (kg/m3)

> print(dat)
                        compound  recorded.result
1   CN(C)C=O [dimethylformamide]            944.6
2      CNC=O [N-methylformamide]              999
3         C1CCCCC1 [cyclohexane]           773.94
4     C1CCOCC1 [tetrahydropyran]           879.13
5  Cc1ccccc1Cl [2-chlorotoluene]           1077.3
